molecular target: GPR40 of human origin (Homo sapiens); assay: Agonist action on GPR40 of human origin (intracellular Ca2+ change); details: CHO cell strain stably expressing GPR40 of human origin; change in Ca2+ concentration, fluorescent calcium indicator
Sequence (O14842 whole entry): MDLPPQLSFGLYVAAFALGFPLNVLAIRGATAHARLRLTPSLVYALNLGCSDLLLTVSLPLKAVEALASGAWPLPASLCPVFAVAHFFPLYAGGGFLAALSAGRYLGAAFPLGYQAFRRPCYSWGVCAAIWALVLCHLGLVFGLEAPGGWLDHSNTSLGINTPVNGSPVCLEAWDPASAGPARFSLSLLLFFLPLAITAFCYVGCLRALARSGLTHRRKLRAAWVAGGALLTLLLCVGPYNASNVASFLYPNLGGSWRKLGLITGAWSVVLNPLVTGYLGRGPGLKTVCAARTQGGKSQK
observable: EC50

Cc1ccc(Oc2cccc3c2CC[C@H]3Oc2ccc(-c3cc(O)n[s+]3[O-])cc2)cc1 (some centres unmarked) : < 300 nM
COc1cc(Cl)cc(-c2cccc3c2CC[C@H]3Oc2ccc(-c3cc(O)n[s+]3[O-])cc2)c1 (some centres unmarked) : < 300 nM
N#Cc1ccc(-c2cccc3c2CC[C@H]3Oc2ccc(-c3cc(O)n[s+]3[O-])cc2)cn1 (some centres unmarked) : 300 to 3000 nM
CCOc1cccc(-c2cccc3c2CC[C@H]3Oc2ccc(-c3cc(O)n[s+]3[O-])cc2)c1 (some centres unmarked) : 300 to 3000 nM
COc1ccc(Oc2cccc3c2CC[C@H]3Oc2ccc(-c3cc(O)n[s+]3[O-])cc2)cn1 (some centres unmarked) : < 300 nM
[O-][s+]1nc(O)cc1-c1ccc(O[C@@H]2CCc3c(-c4ccccc4C(F)(F)F)cccc32)cc1 (some centres unmarked) : < 300 nM

Find the measured EC50 of CCCc1ccc(-c2cccc3c2CC[C@H]3Oc2ccc(-c3cc(O)n[s+]3[O-])cc2)cc1 (some centres unmarked) and report it.
< 300 nM

Recall and state the measured EC50 for CCOCCOc1cc(C)c(Oc2cccc3c2CC[C@H]3Oc2ccc(-c3cc(O)n[s+]3[O-])cc2)c(C)c1 (some centres unmarked) .
< 300 nM

Source: patent US8629102B2
